assay: In vivo pharmacokinetics after intravenous administration to rats; conditions: rat; 5 mg/kg intravenous bolus injection, male Sprague-Dawley rats, plasma
Positions of bridges follow the written chain, without caps; N, C: chain ends. Non-standard residues stand in square brackets, D forms with d. Residues, ends and D or L forms follow the SMILES beside them.
Quick list: AUC(0-inf) per entry.
Provide the reading as a plain figure in ng·h/mL.

Lookup result for C[C@@H](NC(=O)[C@@H](CCC(=O)O)NC(=O)[C@H](N)CCCCN)C(=O)N[C@@H]1CSSC[C@H](C(=O)N[C@H](CCC(=O)O)C(=O)N[C@H](CCC(=O)O)C(=O)O)NC(=O)[C@@H](CCCNC(=N)N)NC(=O)[C@@H](C)NC1=O [Compound 14, KEACARCEE] (H-[dK][dE][dA][dC][dA][dR][dC][dE][dE]-OH; disulfide 4-7; N-terminus and C-terminus assumed) ; measured AUC(0-inf): 7500

More entries:
Lookup result for C[C@H](O)[C@@H](N)C(=O)N[C@H](CCCCN)C(=O)N[C@H](CCC(=O)O)C(=O)N[C@H](C)C(=O)N[C@@H]1CSSC[C@H](C(=O)N[C@H](CCC(=O)O)C(=O)N[C@H](CCC(=O)O)C(=O)NCC(=O)O)NC(=O)[C@@H](CCCNC(=N)N)NC(=O)[C@@H](C)NC1=O ; measured AUC(0-inf): 15500

Lookup result for C[C@H](O)[C@@H](NC(=O)[C@H]1CSSC[C@@H](NC(=O)[C@@H](C)NC(=O)[C@@H](CCC(=O)O)NC(=O)[C@@H](CCCCN)NC(=O)[C@H](N)CO)C(=O)NCC(=O)NCC(=O)N[C@H](CCCCN)C(=O)N1)C(=O)N[C@H](CCC(=O)O)C(=O)NCC(=O)O [Compound 12, SKEACGGKCTEG] (H-[dS][dK][dE][dA][dC]GG[dK][dC][dT][dE]G-OH; disulfide 5-9; N-terminus and C-terminus assumed) ; measured AUC(0-inf): 4310

Lookup result for C[C@H](O)[C@@H](NC(=O)[C@H]1CSSC[C@@H](NC(=O)[C@@H](C)NC(=O)[C@H](N)CCC(=O)O)C(=O)NCC(=O)N[C@H](CCCCN)C(=O)N1)C(=O)N[C@H](CCC(=O)O)C(=O)O ; measured AUC(0-inf): 18400

Data credit: patent US20230391842A1
